protocol details: Phase 1 DDI study 004 part A: lemborexant plasma PK with/without rifampin
Format: in vivo, human
condition context: human, plasma, AUC0‐inf, Mean (SD), lemborexant 10 mg + rifampin 600 mg
readout kind: AUC

In: Annotate the compound Cc1ncc(OC[C@@]2(c3cccc(F)c3)C[C@H]2C(=O)Nc2ccc(F)cn2)c(C)n1 [Lemborexant] with its measured AUC.
Out: 15.8 ng·h/mL

----------
System: CYP3A
protocol details: in vitro
Format: in vitro ADME
readout kind: inhibition at 30 μmol/L (%)
Output spec: scalar in %, unitless text.

In: Give the reported inhibition at 30 μmol/L for this molecule. Cc1ncc(OC[C@@]2(c3cccc(F)c3)C[C@H]2C(=O)Nc2ccc(F)cn2)c(C)n1
Out: 61.5

----------
protocol details: Phase 1 DDI study 004 part A: lemborexant plasma PK with/without itraconazole
Type: in vivo, human
condition context: human, plasma, AUC0‐t, Mean (SD), lemborexant 10 mg + itraconazole 200 mg
readout kind: AUC
Note to self: number, then unit, no commentary.

In: Give AUC for the following molecule: Cc1ncc(OC[C@@]2(c3cccc(F)c3)C[C@H]2C(=O)Nc2ccc(F)cn2)c(C)n1
Out: 1540 ng·h/mL

----------
protocol details: Phase 1 DDI study 004 part A: lemborexant plasma PK with/without rifampin
Assay type: in vivo, human
condition context: human, plasma, 10 mg
readout kind: half-life

In: Provide half-life value for the following compound: Cc1ncc(OC[C@@]2(c3cccc(F)c3)C[C@H]2C(=O)Nc2ccc(F)cn2)c(C)n1 [Lemborexant]
Out: 45.6 h

----------
protocol details: Phase 1 DDI study 004 part A: lemborexant plasma PK with/without rifampin
Assay type: in vivo, human
condition context: human, plasma, 10 mg, AUC0‐inf, Geometric LSM, lemborexant 10 mg alone, n = 15, rifampin cohort
readout kind: AUC

In: Retrieve AUC measured for Cc1ncc(OC[C@@]2(c3cccc(F)c3)C[C@H]2C(=O)Nc2ccc(F)cn2)c(C)n1 [Lemborexant] and print it.
Out: 389 ng·h/mL

----------
protocol details: Phase 1 DDI study 004 part A: lemborexant plasma PK with/without rifampin
Format: in vivo, human
condition context: human, plasma, Cmax, Mean (SD), lemborexant 10 mg + rifampin 600 mg
readout kind: Cmax (ng/mL)
Kindly answer with a numeric value in ng/mL, unit omitted.

In: Specify Cmax for Cc1ncc(OC[C@@]2(c3cccc(F)c3)C[C@H]2C(=O)Nc2ccc(F)cn2)c(C)n1 [Lemborexant] and stop.
Out: 5.3

----------
protocol details: Phase 1 DDI study 004 part A: lemborexant plasma PK with/without itraconazole
Type: in vivo, human
condition context: human, plasma, AUC0‐t, Geometric LSM, lemborexant 10 mg + itraconazole 200 mg once daily, n = 14
readout kind: AUC (ng·h/mL)
Report as a plain number; the unit ng·h/mL is understood.

In: Return the recorded AUC value; entry: Cc1ncc(OC[C@@]2(c3cccc(F)c3)C[C@H]2C(=O)Nc2ccc(F)cn2)c(C)n1
Out: 1480

----------
Test system: CYP3A
protocol details: in vitro
Format: in vitro ADME
readout kind: kinact
Output should be the measured figure followed by the unit it is expressed in.

In: Look up and state reported kinact for Cc1ncc(OC[C@@]2(c3cccc(F)c3)C[C@H]2C(=O)Nc2ccc(F)cn2)c(C)n1
Out: 0.000838 s⁻¹

----------
protocol details: Phase 1 DDI study 004 part A: lemborexant plasma PK with/without rifampin
Format: in vivo, human
condition context: human, plasma, Cmax, Geometric LSM, lemborexant 10 mg + rifampin 600 mg, n = 15
readout kind: Cmax (ng/mL)
Numeric answer only, unit ng/mL assumed.

In: Supply Cmax value. Item: Cc1ncc(OC[C@@]2(c3cccc(F)c3)C[C@H]2C(=O)Nc2ccc(F)cn2)c(C)n1
Out: 4.7

The measured values listed here are drawn from paper PMC8248323.
